tested on: Caki1; assay: cells; details: Homo sapiens, CAKI-1, read-out: Absolute EC50, growth inhibition

{"columns": ["compound", "EC50 [µM]"],
 "data": [
  ["COc1ccc([C@H](C)NC(=O)[C@@H]2C[C@@H](O)CN2C(=O)CNC(=O)c2ccc3cc(F)ccc3n2)c(Cl)c1 [CAM833]", 73]
]}

###

assay: Microsomal intrinsic clearance; conditions: mouse, mouse microsomes

{"columns": ["molecule smiles", "half-life"],
 "data": [
  ["COc1ccc([C@H](C)NC(=O)[C@@H]2C[C@@H](O)CN2C(=O)CNC(=O)c2ccc3cc(F)ccc3n2)c(Cl)c1", "43.1 min"]
]}

###

tested on: HCT116 cells; assay: SRB growth inhibition assay; format: cell-based, human; conditions: 2 Gy IR, SRB 96 h, Figure 6D (cell line not given)
pIC50: −log10 of the molar value.

{"columns": ["compound", "pIC50"],
 "data": [
  ["N.N.O=C([O-])C1(C(=O)[O-])CCC1.[Pt+2] [Carboplatin, reference compound]", 4.97]
]}

###

experiment: Microsomal intrinsic clearance; conditions: rat, rat microsomes

{"columns": ["compound", "microsomal CLint"],
 "data": [
  ["COc1ccc([C@H](C)NC(=O)[C@@H]2C[C@@H](O)CN2C(=O)CNC(=O)c2ccc3cc(F)ccc3n2)c(Cl)c1 [CAM833]", "28.9 µL/min/mg"]
]}

###

system: RKO; experiment: cells; details: Homo sapiens, read-out: Absolute EC50, growth inhibition
readout kind: EC50

{"columns": ["molecule smiles", "assay value"],
 "data": [
  ["COc1ccc([C@H](C)NC(=O)[C@@H]2C[C@@H](O)CN2C(=O)CNC(=O)c2ccc3cc(F)ccc3n2)c(Cl)c1", "63.5 µM"]
]}

###

target: HumRadA2 (Pyrococcus furiosus, UniProt O74036, D220A/E219S/I169M/K221M/V202Y/Y201A); assay: Isothermal titration calorimetry (ITC) against HumRadA2; assay type: binding, Pyrococcus furiosus (humanised RadA)

{"columns": ["molecule smiles", "Kd / µM"],
 "data": [
  ["C[C@H](NC(=O)c1ccc2ccccc2c1)C(=O)N1CCC[C@H]1C(=O)N[C@@H](C)c1ccccc1", 0.22],
  ["Nc1cc2ccccc2cc1C(=O)O", 1300],
  ["C[C@H](NC(=O)[C@@H]1CCCN1C(=O)[C@H](Cc1c[nH]cn1)NC(=O)c1cc2ccccc2cc1N)C(N)=O", 3]
]}

###

experiment: Caco-2 permeability; type: in vitro ADME; conditions: human, Caco-2; A to B; read-out: Caco-2 permeability AtoB Papp

{"columns": ["molecule smiles", "Papp A→B"],
 "data": [
  ["COc1ccc([C@H](C)NC(=O)[C@@H]2C[C@@H](O)CN2C(=O)CNC(=O)c2ccc3cc(F)ccc3n2)c(Cl)c1", "0.23 ×10⁻⁶ cm/s"]
]}

###

tested on: BT549; experiment: cells; settings: Homo sapiens, BT-549, read-out: Absolute EC50, growth inhibition

{"columns": ["compound", "measured on", "EC50 [µM]"],
 "data": [
  ["COc1ccc([C@H](C)NC(=O)[C@@H]2C[C@@H](O)CN2C(=O)CNC(=O)c2ccc3cc(F)ccc3n2)c(Cl)c1 [CAM833]", "BT549", 73.8]
]}
